Target: Recombinant human cathepsin L (Homo sapiens)
Construct: made in house
Sequence (P07711 114-333): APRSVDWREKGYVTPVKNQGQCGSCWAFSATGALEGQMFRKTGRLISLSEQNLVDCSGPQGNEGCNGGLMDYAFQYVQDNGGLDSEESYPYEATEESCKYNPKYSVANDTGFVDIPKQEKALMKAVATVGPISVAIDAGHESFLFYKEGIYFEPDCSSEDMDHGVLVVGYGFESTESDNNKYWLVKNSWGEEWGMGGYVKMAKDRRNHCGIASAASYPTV
Assay: Recombinant cathepsin inhibition, gel-based competition with GB123 probe
Format: biochemical
Conditions: Figure 1; gel-based GB123 competition; read-out: Activity [μM] CTSL (IC50)
Source text: In-gel fluorescence analysis was used to detect the residual activity of the cathepsins by applying pan-cathepsin probe GB123 to detect the stable enzyme–probe complex. This approach is used for testing inhibition and selectivity.[37],[41] […]
quantity_kind: IC50

Task item: Please give the measured IC50 for this compound: `NCCCC[C@H](NC(=O)[C@@H]1CCCN1C(=O)CNC(=O)OCc1ccccc1)C(=O)CSc1c(F)c(F)cc(F)c1F`
Reply: > 5 µM

###

Target: Recombinant human cathepsin B (Homo sapiens, UniProt P07858)
Construct: made in house
Assay: Recombinant cathepsin inhibition, gel-based competition with GB123 probe
Format: biochemical
Settings: Table S2; three independent competition gel-based experiments; read-out: CTSB (IC50)
quantity_kind: IC50 (nM)
Give just the number in nM; leave the unit off.

molecule	quantity_kind	reported_value
Cc1cccc(C)c1C(=O)OCC(=O)CNC(=O)[C@H](CC(C)(C)F)N[C@@H](c1ccc(-c2ccc(NC(=O)OC(C)(C)C)cc2)cc1)C(F)(F)F	IC50	1700
Cc1cccc(C)c1C(=O)OCC(=O)[C@H](CCCCN)NC(=O)[C@H](Cc1ccccc1)NC(=O)OCc1ccccc1 [GB111-NH2, reference compound]	IC50	400

Task item: Please give the measured IC50 for this molecule: `CC(C)C[C@H](N[C@@H](c1ccc(-c2ccc(CCNC(=O)OC(C)(C)C)cc2)cc1)C(F)(F)F)C(=O)NCC(=O)COC(=O)[C@@H]1CCCN1C(=O)[C@H](CC(C)C)NC(=O)OCC1c2ccccc2-c2ccccc21`
Reply: 5000

Task item: Please give the measured IC50 for this molecule: `Cc1cccc(C)c1C(=O)OCC(=O)CNC(=O)[C@@H]1CCCN1C(=O)CNC(=O)OCc1ccccc1`
Reply: 2800

###

Target: Recombinant human cathepsin K (Homo sapiens)
Construct: made in house
Sequence (P43235 115-329): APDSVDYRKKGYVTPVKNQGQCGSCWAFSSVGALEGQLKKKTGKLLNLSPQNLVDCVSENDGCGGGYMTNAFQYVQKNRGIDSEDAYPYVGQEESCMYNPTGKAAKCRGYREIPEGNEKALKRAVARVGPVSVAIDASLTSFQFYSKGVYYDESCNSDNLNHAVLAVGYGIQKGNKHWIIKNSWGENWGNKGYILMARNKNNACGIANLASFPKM
Experiment: Recombinant cathepsin inhibition, gel-based competition with GB123 probe
Format: biochemical
Conditions: Figure 1; gel-based GB123 competition; read-out: Activity [μM] CTSK (IC50)
quantity_kind: IC50

Task item: Please give the measured IC50 for this molecule: `Cc1cccc(C)c1C(=O)OCC(=O)[C@H](CCCCN)NC(=O)[C@@H]1CCCN1C(=O)CNC(=O)OCc1ccccc1`
Reply: 3.6 µM

###

Target: CTSK (Homo sapiens, UniProt P43235)
Construct: made in house
Assay: Kinetic evaluation of recombinant cathepsin inhibition, fluorogenic substrate Z-FR-AMC
Assay type: biochemical
Conditions: reversible (tight binding)
quantity_kind: pIC50
Answer as the number alone; pIC50 is minus log10 of concentration in mol/L.

Task item: Please give the measured pIC50 for this compound: CC(C)(F)C[C@H](N[C@@H](c1ccc(-c2ccc(S(C)(=O)=O)cc2)cc1)C(F)(F)F)C(=O)NC1(C#N)CC1 [ODN, odanacatib, reference compound]
Reply: 9.03
